- target-system: elastase (Sus scrofa)
- Construct: purchased Sigma-Aldrich CAS No. 39445-21-1 (catalogue number not given); host or cells: porcine pancreas
- Sequence (P00772 27-266): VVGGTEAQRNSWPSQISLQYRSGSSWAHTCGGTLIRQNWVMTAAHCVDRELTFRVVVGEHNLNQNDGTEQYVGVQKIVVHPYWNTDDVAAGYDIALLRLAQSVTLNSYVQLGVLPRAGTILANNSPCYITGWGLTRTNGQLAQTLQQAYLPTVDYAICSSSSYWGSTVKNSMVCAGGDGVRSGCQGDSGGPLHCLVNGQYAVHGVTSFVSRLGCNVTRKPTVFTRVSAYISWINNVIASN
- test-summary: Elastase inhibition assay
- Format: biochemical, porcine
measure-name: IC50

QUERY: Query IC50 for O=c1cc(CO)occ1O [KJA, kojic acid, reference compound]
RESULT: > 704 µM

###

- test-summary: Ferric-ion-reducing antioxidant power (FRAP) assay
- conditions: ascorbic acid equivalents; sample stock 1 mg/mL; read at 593 nm after 30 min
measure-name: FRAP (µM AAE/g)
Entry rule: numbers only, all in µM AAE/g.

| compound | result |
| --- | --- |
| COc1c(OC)c(O)c2c(=O)c(OC)c(-c3ccccc3)oc2c1OC [Compound C-3, 5-hydroxy-3,6,7,8-tetramethoxyflavone] | 1314.42 |

QUERY: Query FRAP for COc1cc2oc(-c3ccccc3)c(OC)c(=O)c2c(O)c1OC [Compound C-4, 5-hydroxy-3,6,7-trimethoxyflavone]
RESULT: 1119.44

QUERY: Query FRAP for C=C1CC23CCC4C(C)(C(=O)O)CCCC4(C)C2CCC1C3 (stereo not shown)
RESULT: 19.66

QUERY: Query FRAP for C=C1C2CCC3C4(C)CCCC(C)(C(=O)O)C4CCC3(C2)C1O (stereo not shown)
RESULT: 60.90

###

- test-summary: Automated ORAC assay, hydroxyl radical (H2O2-Cu2+)
- conditions: trolox equivalents; H2O2-Cu2+-generated hydroxyl radical; fluorescein probe
Overview of reported ORAC Hydroxyl across a group of compounds:

// below: answered compounds
| compound | ORAC Hydroxyl |
| --- | --- |
| O=C(O[C@@H]1Cc2c(O)cc(O)cc2O[C@@H]1c1cc(O)c(O)c(O)c1)c1cc(O)c(O)c(O)c1 [EGCG, Epigallocatechin gallate, reference compound] | 3.862 ± 4.65 × 10^6 µM TE/g |
| C/C=C(\C)C(=O)Oc1c(O)c(OC)c(O)c2c(=O)c(OC)c(-c3ccccc3)oc12 | 2.114 ± 4.01 × 10^6 µM TE/g |

Continue with the next compound.
QUERY: Query ORAC Hydroxyl for COc1c(O)c(OC)c2oc(-c3ccccc3)c(OC)c(=O)c2c1O [Compound C-2, 5,7-dihydroxy-3,6,8-trimethoxyflavone]
RESULT: 2.413 ± 6.20 × 10^6 µM TE/g

###

- test-summary: Automated ORAC assay, hydroxyl radical (H2O2-Cu2+)
- conditions: trolox equivalents; H2O2-Cu2+-generated hydroxyl radical; fluorescein probe
Overview of reported ORAC Hydroxyl across a group of compounds:

// below: answered compounds
| compound | ORAC Hydroxyl |
| --- | --- |
| COc1cc2oc(-c3ccccc3)c(OC)c(=O)c2c(O)c1OC [Compound C-4, 5-hydroxy-3,6,7-trimethoxyflavone] | 1.917 ± 3.91 × 10^6 µM TE/g |
| C=C1CC23CCC4C(C)(C(=O)O)CCCC4(C)C2CCC1C3 (stereo not drawn) | 0.429 ± 12.00 × 10^6 µM TE/g |

Continue with the next compound.
QUERY: Query ORAC Hydroxyl for C=C1C2CCC3C4(C)CCCC(C)(C(=O)O)C4CCC3(C2)C1O (stereo not drawn)
RESULT: 0.845 ± 13.34 × 10^6 µM TE/g
